tested on: NCI-H23 lung; assay: NCI tumour cell line growth inhibition, 48 h; in the data active means GI50 below about 0.43 µM; inactive means the rest
Pick one and only one: 1 (yes) (active), 0 (no) (inactive)

**Query** Test call, this compound: `NC(=O)c1ccc(Oc2nccc(-c3c(-c4ccc(F)cc4)ncn3C3CCNCC3)n2)cc1`
**Result** 0 (no)

**Query** Tell me the assay call for `COC(=O)c1c(-c2cccs2)oc(-c2cccs2)c1C(=O)OC` please.
**Result** 0 (no)

**Query** Kindly provide the recorded test outcome for the following compound: `CSc1nc2nc3c(nc2c(=O)n1C)C(=O)c1ccccc1C3=O`
**Result** 1 (yes)

**Query** Short answer needed: outcome of this test for `C#C[C@@]1(O)[C@@H](CO)O[C@@H](n2cc(I)c3c(N)ncnc32)[C@@H]1O` ?
**Result** 1 (yes)

**Query** Recorded test outcome, item O=C1CSC(c2ccccc2Cl)N1c1nnc(Cn2cnnc2)o1 (stereo unspecified)
**Result** 0 (no)

**Query** Recorded test call requested for `Cc1cc(N(CCOS(C)(=O)=O)CCOS(C)(=O)=O)ccc1C(=O)O`
**Result** 0 (no)

---

system: SK-MEL-28 melanoma; assay: NCI tumour cell line growth inhibition, 48 h
Assay metric: TGI (µM)
Write it as a number; the unit µM goes unstated.

**Query** Query TGI on SK-MEL-28 melanoma for C=C1C(C)C2C(Cc3ccccc3)NC(=O)C23OC(=O)/C=C\CC(=O)CCC(C)C/C=C/C3C1O (stereo not given)
**Result** 3.92

**Query** API: value(readout=TGI, system=SK-MEL-28 melanoma) for record `COc1nc(C#CC2CCCCC2)nc(OC)n1`
**Result** 32.8

**Query** Give the reported TGI for `Cc1ccc(-c2nc(/C=N/Nc3cc(C)nc4ccc(Cl)cc34)c(C)o2)cc1` (system: SK-MEL-28 melanoma).
**Result** 3.29

**Query** Can you look up TGI on SK-MEL-28 melanoma for CCC(=O)OC1CCn2c1nc1c2C(=O)C(C)=C(NC(C)=O)C1=N (stereo not given) ?
**Result** 3.5

---

tested on: MDA-MB-435; test: NCI tumour cell line growth inhibition, 48 h
Assay metric: TGI

**Query** Form entry - test system: MDA-MB-435; read-out: TGI; compound: `NC(=O)c1ccc(Oc2nccc(-c3c(-c4ccc(F)cc4)ncn3C3CCNCC3)n2)cc1`
**Result** > 25 µM

**Query** Form: Entry = COc1ccc2cc(C(C)C(=O)N3C(=O)OCC3(C)C)ccc2c1 (configuration not stated) | System = MDA-MB-435 | TGI = ____
**Result** > 100 µM

**Query** Enter reported TGI observed with MDA-MB-435 for `O=C(OCc1ccccc1)N1CCNCCNCCN(C(=O)OCc2ccccc2)CCNCC1`
**Result** 29.6 µM

**Query** Fill in the recorded TGI for this compound, with MDA-MB-435 as test system: `ClCc1ccccc1Cn1cnc2ncnc(Cl)c21`
**Result** 3.84 µM

**Query** Give TGI (MDA-MB-435) of the following compound: `C#CCOC(=O)c1ccc(OC(C)=O)cc1`
**Result** > 100 µM

**Query** API: value(readout= TGI, system= MDA-MB-435, query= `Cc1c2cccc-2ccc2c3ccccc3n(C(=O)c3ccc(Cl)cc3)c12` )
**Result** > 100 µM

**Query** Notebook: pull reported TGI for MDA-MB-435, entry `C1CN(c2nnc(N3CCC3)nn2)C1`
**Result** 32.4 µM

**Query** Record lookup: for MDA-MB-435, what TGI belongs to `Cc1cc(-c2nc3cccc(O)c3s2)ccc1N` ?
**Result** 41.9 µM

**Query** Form entry - test system: MDA-MB-435; read-out: TGI; compound: O=C(NNc1ccc(Cl)cc1)C1CCC(CNS(=O)(=O)c2ccccc2Cl)CC1 (configuration not stated)
**Result** 24.1 µM

**Query** Give the reported TGI for `COc1ccc(/C=C/c2c(C(=O)/C=C/c3ccc(C(F)(F)F)cc3)c(C)nc3ccccc23)cc1` (system: MDA-MB-435).
**Result** 3.72 µM

**Query** What value of TGI on MDA-MB-435 does `COc1cc(Oc2nc3cc(F)c(F)cc3nc2-c2ccccc2)cc(OC)c1OC` have?
**Result** > 100 µM

**Query** State its TGI on MDA-MB-435: Cc1ccccc1NC(=O)CC(=O)NNC(Sc1ccccc1)c1cc(N=Nc2ccc(Br)cc2)ccc1O (configuration not stated)
**Result** > 10 µM

**Query** Could you share what TGI was measured for `CSc1nc2nc3c(nc2c(=O)n1C)C(=O)c1ccccc1C3=O` , tested on MDA-MB-435?
**Result** 0.0471 µM

**Query** Tell me reported TGI for `Cn1c(=O)sc2cc(C(=S)N3CCCCC3)ccc21` , tested with MDA-MB-435.
**Result** > 100 µM

**Query** // fetch MDA-MB-435 TGI for `COc1cc2nc(-c3cccs3)nc(Nc3cccc(Cl)c3)c2cc1OC`
**Result** > 100 µM

**Query** What TGI appears in the records for this compound with MDA-MB-435? `CNCCCNc1nc2ccccc2c2c(=O)c3cc(OC)ccc3sc12`
**Result** 3.24 µM

**Query** API: value(readout= TGI, system= MDA-MB-435, query= `CCCOC(=O)c1c(C)n(C)c2scc[n+]12` )
**Result** > 100 µM

**Query** Recorded TGI for CN(C)CC1CC/C(=C\c2ccc3c(c2)OCO3)C1=O (configuration not stated) with MDA-MB-435, please?
**Result** 4.43 µM

**Query** Hello, I am looking for reported TGI with MDA-MB-435 for C=C1CC(C)(c2cccc(Nc3nc4ccccc4c4occc34)c2)OC1=O (configuration not stated) . Could you help?
**Result** 21.8 µM

**Query** State its TGI on MDA-MB-435: `Cc1ccc(-c2nc(/C=N/Nc3cc(C)nc4ccc(Cl)cc34)c(C)o2)cc1`
**Result** 3.25 µM

**Query** What reported TGI corresponds to `S=C1SC(=Nc2ccccc2)C(=Nc2ccccc2)N1c1ccc2ccccc2c1` on MDA-MB-435?
**Result** > 100 µM

**Query** So what TGI did CC(=O)OCC1OC(n2c(C)c(C)c(C)c(C#N)c2=S)C(OC(C)=O)C(OC(C)=O)C1OC(C)=O (configuration not stated) get with MDA-MB-435?
**Result** > 100 µM
